// data source = paper PMC9981942

- method summary: Pharmacokinetic study: plasma levels after oral SZ-A in SD rats (LC-MS/MS, DAS 3.2.8)
- Assay type: in vivo
- run parameters: both sexes, SD, rat, plasma, po, 50 mg/kg, plasma, oral SZ-A 50 mg/kg, n=8, read-out: Tmax
reported property: Tmax (min)
Numbers only, in min.

compound: OC[C@H]1NC[C@@H](O)[C@@H]1O [DAB, 1,4-dideoxy-1,4-imino-D-arabinitol]
endpoint unit: min
Tmax: 26.4
//
compound: OC[C@H]1NCC[C@@H](O)[C@@H]1O [FA, fagomine]
endpoint unit: min
Tmax: 33.6

Now for the compound whose Tmax we want.
[in] Record request: Tmax value, item OC[C@H]1NC[C@H](O)[C@@H](O)[C@@H]1O [DNJ, 1-deoxynojirimycin]
[out] 37.8

----------
- method summary: Tissue distribution after single oral SZ-A (40 mg/kg) in SD rats, plasma and 12 tissues
- Assay type: in vivo
- run parameters: rat, Brain, n=5
reported property: Cmax (ng/mL)
Numbers only, in ng/mL.

[in] Can you share its Cmax? I mean this compound: OC[C@H]1NC[C@H](O)[C@@H](O)[C@@H]1O [DNJ, 1-deoxynojirimycin]
[out] 242

----------
- method summary: Pharmacokinetic study: plasma levels after oral SZ-A in SD rats (LC-MS/MS, DAS 3.2.8)
- Assay type: in vivo
- run parameters: both sexes, rat, plasma, oral SZ-A 25 mg/kg, n=8
reported property: AUC(0-t) (ng·h/mL)
Numbers only, in ng·h/mL.

Sample records with AUC(0-t):
smiles representation: OC[C@H]1NC[C@@H](O)[C@@H]1O
AUC(0-t) / ng·h/mL: 1360
//
smiles representation: OC[C@H]1NC[C@H](O)[C@@H](O)[C@@H]1O
AUC(0-t) / ng·h/mL: 7160

Next, consider the following molecule.
[in] Which AUC(0-t) value is on record for OC[C@H]1NCC[C@@H](O)[C@@H]1O ?
[out] 1040

----------
Assignment: determine reported half-life for the given compounds.
- method summary: Tissue distribution after single oral SZ-A (40 mg/kg) in SD rats, plasma and 12 tissues
- Format: in vivo
- run parameters: rat, Heart, n=5
Give bare numbers, in min.

smiles representation: OC[C@H]1NC[C@@H](O)[C@@H]1O
half-life (min): 42.6
//
smiles representation: OC[C@H]1NCC[C@@H](O)[C@@H]1O
half-life (min): 42.6

[in] Entry OC[C@H]1NC[C@H](O)[C@@H](O)[C@@H]1O : reported half-life = ?
[out] 31.8

----------
- method summary: Tissue distribution after single oral SZ-A (40 mg/kg) in SD rats, plasma and 12 tissues
- Format: in vivo
- run parameters: Sprague-Dawley, rat, Pancreas, n=5
Consider the following molecules; for each one, report its half-life.
Numbers only, in min.

smiles representation: OC[C@H]1NC[C@@H](O)[C@@H]1O
assay value: 40.2

Your task in this section: give half-life for each listed record.
1. OC[C@H]1NC[C@H](O)[C@@H](O)[C@@H]1O
2. OC[C@H]1NCC[C@@H](O)[C@@H]1O

[out]
1: 130; 2: 42

----------
Could you please report measured MRT last for the items listed next?
- method summary: Pharmacokinetic study: plasma levels after oral SZ-A in SD rats (LC-MS/MS, DAS 3.2.8)
- Type: in vivo
- run parameters: both sexes, rat, plasma, oral SZ-A 200 mg/kg, n=8, read-out: MRT(0-t)
One number for each entry, in h.

Previously resolved entries follow.
smiles representation: OC[C@H]1NC[C@H](O)[C@@H](O)[C@@H]1O
assay value: 1.79

smiles representation: OC[C@H]1NC[C@@H](O)[C@@H]1O
assay value: 1.6

Let us move to another entry and its MRT last.
[in] Could you share which MRT last value was measured for OC[C@H]1NCC[C@@H](O)[C@@H]1O ?
[out] 1.97

----------
- method summary: Pharmacokinetic study: plasma levels after oral SZ-A in SD rats (LC-MS/MS, DAS 3.2.8)
- Format: in vivo
- run parameters: both sexes, rat, plasma, oral SZ-A 50 mg/kg, n=8
Exercise: state measured half-life for each of the molecules provided.
Give bare numbers, in h.

Answered cases to consult:
smiles representation: OC[C@H]1NC[C@@H](O)[C@@H]1O
half-life (h): 1.2
--
smiles representation: OC[C@H]1NC[C@H](O)[C@@H](O)[C@@H]1O
half-life (h): 1.07

[in] Value lookup for half-life; key = OC[C@H]1NCC[C@@H](O)[C@@H]1O
[out] 1.19

----------
- method summary: Tissue distribution after single oral SZ-A (40 mg/kg) in SD rats, plasma and 12 tissues
- Assay type: in vivo
- run parameters: rat, Subcutaneous adipose tissue, n=5
reported property: half-life

Solved entries:
compound: OC[C@H]1NCC[C@@H](O)[C@@H]1O [FA, fagomine]
reported property: half-life
assay value: 44.4 min
//
compound: OC[C@H]1NC[C@@H](O)[C@@H]1O [DAB, 1,4-dideoxy-1,4-imino-D-arabinitol]
reported property: half-life
assay value: 44.4 min

Now look at this one.
[in] Can you share its half-life? I mean this compound: OC[C@H]1NC[C@H](O)[C@@H](O)[C@@H]1O [DNJ, 1-deoxynojirimycin]
[out] 37.8 min

----------
- method summary: Tissue distribution after single oral SZ-A (40 mg/kg) in SD rats, plasma and 12 tissues
- Type: in vivo
- run parameters: Sprague-Dawley, rat, Plasma, n=5, read-out: Tmax
reported property: Tmax (min)
Numbers only, in min.

Here are 2 compounds together with their reported answers.
smiles representation: OC[C@H]1NCC[C@@H](O)[C@@H]1O
Tmax [min]: 25.2
--
smiles representation: OC[C@H]1NC[C@H](O)[C@@H](O)[C@@H]1O
Tmax [min]: 30

We now examine a further compound.
[in] What Tmax value was documented for this compound, OC[C@H]1NC[C@@H](O)[C@@H]1O ?
[out] 30

----------
- method summary: Tissue distribution after single oral SZ-A (40 mg/kg) in SD rats, plasma and 12 tissues
- Assay type: in vivo
- run parameters: rat, Heart, n=5
Could you please report measured Cmax for the items listed next?
Could you give the number and then its unit, please?

The following compounds have reported results that may help.
compound: OC[C@H]1NCC[C@@H](O)[C@@H]1O [FA, fagomine]
Cmax: 128 ng/mL

compound: OC[C@H]1NC[C@@H](O)[C@@H]1O [DAB, 1,4-dideoxy-1,4-imino-D-arabinitol]
Cmax: 114 ng/mL

Consider now this further compound.
[in] Value lookup for Cmax; key = OC[C@H]1NC[C@H](O)[C@@H](O)[C@@H]1O [DNJ, 1-deoxynojirimycin]
[out] 588 ng/mL

----------
I'd be grateful if you could share measured AUC(0-t) for these entries.
- method summary: Tissue distribution after single oral SZ-A (40 mg/kg) in SD rats, plasma and 12 tissues
- Type: in vivo
- run parameters: Sprague-Dawley, rat, Liver, n=5, read-out: AUC(0-t)
- Description: Twenty SD rats were randomly classified into four groups corresponding to four-time points (5 and 30 min, 4 and 12 h) (n = 20; 5 animals per time point) that received SZ-A solution (40 mg/kg) via oral administration. […] Collected tissue samples were washed with normal saline. The surface moisture was removed by blotting gently with filter paper, and the weight was recorded. […]
Numbers only, in ng·h/mL.

Before answering, review these 2 worked examples.
compound: OC[C@H]1NC[C@H](O)[C@@H](O)[C@@H]1O [DNJ, 1-deoxynojirimycin]
endpoint unit: ng·h/mL
AUC(0-t): 7560
--
compound: OC[C@H]1NCC[C@@H](O)[C@@H]1O [FA, fagomine]
endpoint unit: ng·h/mL
AUC(0-t): 2990

[in] Give its AUC(0-t) value. Item: OC[C@H]1NC[C@@H](O)[C@@H]1O [DAB, 1,4-dideoxy-1,4-imino-D-arabinitol]
[out] 8120

----------
- method summary: Tissue distribution after single oral SZ-A (40 mg/kg) in SD rats, plasma and 12 tissues
- Format: in vivo
- run parameters: Sprague-Dawley, rat, muscle (thigh skeletal muscle), Muscle, n=5, read-out: AUC(0-t)
I'd appreciate it if you could supply AUC(0-t) values for the items below.
Give bare numbers, in ng·h/mL.

smiles representation: OC[C@H]1NC[C@@H](O)[C@@H]1O
endpoint unit: ng·h/mL
assay value: 1550
--
smiles representation: OC[C@H]1NC[C@H](O)[C@@H](O)[C@@H]1O
endpoint unit: ng·h/mL
assay value: 2640

From here, focus on the item given below.
[in] Reported AUC(0-t) for OC[C@H]1NCC[C@@H](O)[C@@H]1O : what is it?
[out] 577

----------
- method summary: Tissue distribution after single oral SZ-A (40 mg/kg) in SD rats, plasma and 12 tissues
- Format: in vivo
- run parameters: Sprague-Dawley, rat, Kidney, n=5, read-out: AUC(0-t)
reported property: AUC(0-t) (ng·h/mL)
Give bare numbers, in ng·h/mL.

Reference set, count: 2
molecule: OC[C@H]1NC[C@@H](O)[C@@H]1O [DAB, 1,4-dideoxy-1,4-imino-D-arabinitol]
endpoint unit: ng·h/mL
AUC(0-t): 37800
//
molecule: OC[C@H]1NCC[C@@H](O)[C@@H]1O [FA, fagomine]
endpoint unit: ng·h/mL
AUC(0-t): 27000

[in] State the recorded AUC(0-t) for this entry: OC[C@H]1NC[C@H](O)[C@@H](O)[C@@H]1O [DNJ, 1-deoxynojirimycin]
[out] 174000
